The measurements presented in this section are drawn from PubChem BioAssay.

testMethodNotes: FRG1 promoter luciferase signal modulators, primary screen, FRG1 inhibition for FSHD, cell-based, C2C12 myotubes, firefly/Renilla luciferase, luminescence (AID 1084)
condition: higher = more signal, called active from +8 up or from −8 down
measuredAttribute: z-score
// no unit, no text: just the number

Field z-score (entry COc1cc(CO)cc(I)c1O[C@H]1C=C(C(=O)NCCO)C[C@@H](N(CCN2CCOCC2)C(=O)C2CCCO2)[C@@H]1O (some centres undefined) ) reads 0.104

Field z-score (entry COc1ccc(C(O)C2C=CC3C(=O)N(C)C(=O)C3N2Nc2ccccc2)cc1 (centres undefined) ) reads 1.71

Field z-score (entry C=C(C(=O)CC[C@@H](OC(=O)c1ccccc1-c1ccccc1C(=O)O)c1ccc(OCCO)cc1)C(C)C ) reads 2.12

Field z-score (entry CCCCCN1CC=CC23O[C@@H]4/C=C\CCCOC(=O)C4[C@H]2C(=O)N(CCO)[C@@H]3C1=O (some centres undefined) ) reads -0.345

Field z-score (entry CC(C)C(=C=CC[C@H](O)c1cccc(OCCO)c1)C[C@H](O)c1ccccn1 ) reads -0.29

Field z-score (entry CC(=O)NCCCC[C@@H]1NC(=O)[C@H]2C[C@@H](C(=O)NCCCCCN)[C@@H](c3ccc(O)cc3)N2C1=O ) reads -0.248

Field z-score (entry CCN1C(=O)C2CC(=O)C3C(CN(S(=O)(=O)c4ccc(C)cc4)C3c3ccc(C)cc3)C2C1=O (centres undefined) ) reads -0.812

Field z-score (entry COC(=O)Cn1c(C(=O)N(C)C)cc2c1C[C@H]1CN(C(=O)c3ccccc3)[C@@](Cc3ccccc3)(C(=O)OC)[C@@H]21 ) reads 1.5

Field z-score (entry COC(=O)[C@@]1(Cc2ccc(F)cc2)[C@H]2c3cc(C(=O)N4CCCC4)n(Cc4ccc(C(F)(F)F)nc4)c3C[C@H]2CN1C(=O)c1ccccc1 ) reads 2
